System: SNB-75
Experiment: NCI tumour cell line growth inhibition, 48 h
Active and inactive are the calls of the source. Cut-off read from the data, not from the text of the source: active = GI50 up to about 1.1 µM and inactive = higher.
Labels: TRUE = active, FALSE = inactive

| compound | discrete label |
| --- | --- |
| CNC(=O)OC(COC)CN1CCN(c2ccccc2C)CC1 (configuration not stated) | FALSE |
| COc1ncnc2c(NC3OC(CO)C(O)C3O)ncnc12 (configuration not stated) | TRUE |
| CC(=O)N/C=C/c1cc(O)ccc1O | FALSE |
| O=C(Nc1ccc(Cl)cc1)c1cc(S(=O)(=O)Nc2nc3cccnc3[nH]2)c(SSc2cc(Cl)c(C(=O)Nc3ccc(Cl)cc3)cc2S(=O)(=O)Nc2nc3cccnc3[nH]2)cc1Cl | FALSE |
| COc1ccc(/C=N/n2cnc3c(c2=O)S/C(=C2/SC(=S)N(c4ccc(C)cc4)C2=O)N3c2ccccc2)cc1 | FALSE |
| Cc1cc(=O)[nH]c2c1C(=O)c1c(C)cc(=O)n(C)c1C2=O | TRUE |
| COC(=O)c1ccc2c(c1)CC1(C2)Cc2ccc3c(c2C1)CCC3 (configuration not stated) | FALSE |

* * *

Test system: NCI-H460
Assay: NCI tumour cell line growth inhibition, 48 h
Activity calls are given as the source filed them. No stated cut-off is given here; in the data, active = GI50 up to about 1.1 µM and inactive = higher.
Outcomes: y for active, n for inactive

| compound | discrete label |
| --- | --- |
| CNC(=O)OC(COC)CN1CCN(c2ccccc2C)CC1 (stereo not drawn) | n |
| Cc1cc(=O)[nH]c2c1C(=O)c1c(C)cc(=O)n(C)c1C2=O | y |
| O=C(Nc1c(Cl)cc([N+](=O)[O-])cc1Cl)C(=O)C(C1OC(=O)c2ccccc21)[N+](=O)[O-] (stereo not drawn) | n |
| NC(=O)N/N=C1/CCC(O)CC1CC(=O)O (stereo not drawn) | n |
| Oc1nc2c(c(-c3cccc(Cl)c3)n1)COC/C2=C\c1cccc(Cl)c1 | n |
| C/C(CC(=O)Nc1ccc(NC(=O)/C(C)=N/NS(=O)(=O)c2ccc(C)cc2)cc1)=N\NS(=O)(=O)c1ccc(C)cc1 | n |
| CCOC(=O)C(Cc1c(C=O)[nH]c2ccccc12)(NC(=O)c1ccccc1)C(=O)OCC | n |
| C/C(=C/CO[Si](C)(C)C(C)(C)C)C(=O)N(C)c1ccccc1I | n |

* * *

System: COLO 205
Test: NCI tumour cell line growth inhibition, 48 h
Active and inactive are the calls of the source. Cut-off read from the data, not from the text of the source: active = GI50 up to about 1.1 µM and inactive = higher.

| compound | GI50 |
| --- | --- |
| COC(=O)c1nc2c3c(cccc3c1C(=O)OC)Nc1ccccc1-2 | 28.1 µM (inactive) |
| COC(=O)C[C@H]1[C@]2(C)C3=C(C)[C@H](c4ccoc4)CC3O[C@@H]2[C@@H]2OC(=O)[C@]3(C)CCC(=O)[C@@]1(C)[C@@H]23 (stereo partly specified) | 62.8 µM (inactive) |
| CCOC(=O)Cc1csc2[n+]1C(=O)/C(=C/c1cccc(OC)c1O)S2 | 78.5 µM (inactive) |
| COC1CCC(=O)N1CN(C(C)=O)c1ccc(C)cc1 (stereo unspecified) | > 100 µM (inactive) |
| COC1CC(OC2C(C)OC(OC3C(C)OC(OC4C(O)CC(O[C@H]5CC[C@@]6(C)C(=CC[C@]7(O)[C@@H]6C[C@@H](OC(=O)/C=C/c6ccccc6)[C@@]6(C)[C@]7(O)CC[C@@]6(O)C(C)=O)C5)OC4C)CC3OC)CC2OC)OC(C)C1O (stereo partly specified) | > 6.25 µM (inactive) |
| O=C1C(NCCc2ccc(O)c([N+](=O)[O-])c2)=CC(=O)c2[nH]cnc21 | 43.8 µM (inactive) |

* * *

Test system: OVCAR-4
Assay: NCI tumour cell line growth inhibition, 48 h
The source made the active and inactive calls. Cut-off read from the data, not from the text of the source: active = GI50 up to about 1.1 µM and inactive = higher.
readout label: GI50

| molecule | result |
| --- | --- |
| CC1=C(c2ccccc2)NC(=S)C(C)C(c2ccccc2)=N1 (stereo not given) | 17.2 µM (inactive) |
| COC(=O)C1=C(C(=O)OC)C2CCC1CC2=O (stereo not given) | > 100 µM (inactive) |
| CCOC(=O)OC1C(Br)C2CCC1(C)C2(C)C (stereo not given) | 11.7 µM (inactive) |
| CC1=NOC(=O)C1/N=N/c1ccc(Br)c(C)c1 (stereo not given) | 15.2 µM (inactive) |
| O=C(c1ccccc1)c1c(C(F)(F)F)[n+]([O-])c2cc(Cl)c(Cl)cc2[n+]1[O-] | 1.56 µM (inactive) |
| C=C1C/C(=C/C)C(=O)O[C@@H]2CCN3CC=C(COC(=O)[C@]1(C)O)[C@H]23 | > 100 µM (inactive) |
| N#CC(C(=O)C(=O)Nc1ccc(Cl)cc1)c1ccccc1 (stereo not given) | > 100 µM (inactive) |
| COC(=O)C1Cc2c(OC)ccc(OC)c2C(O)C1C(=O)OC (stereo not given) | > 100 µM (inactive) |
| ClCCCN(CCCCl)c1ccc(/C=N/c2cccc(Cl)c2)cc1 | 9.75 µM (inactive) |
| COC(=O)CCC(=O)NC1C2CC3CC(C2)CC1C3 (stereo not given) | > 100 µM (inactive) |
| C=C1C(=O)OC2C1C(OC(=O)/C(C)=C/C)CC(O)(CCl)C1C(O)C3OC3(C)C21O (stereo not given) | > 50 µM (inactive) |
| CCOC(=O)Cc1csc2[n+]1C(=O)/C(=C/c1cccc(OC)c1O)S2 | 64.4 µM (inactive) |
| CC(C)=CCC/C(C)=C/Cc1c(O)c(C)cc2c1[nH]c1cc(O)ccc12 | > 25 µM (inactive) |
| CC(=O)N/C=C/c1cc(O)ccc1O | 32.6 µM (inactive) |
| Cc1cc2c(cc1C)[n+]([O-])c(C(=O)C/C(=N/NC(=O)c1ccccc1O)C(=O)Nc1ccccc1C(C)C)c(C)[n+]2[O-] | 54.1 µM (inactive) |

* * *

System: LOX IMVI
Assay: NCI tumour cell line growth inhibition, 48 h
Activity calls are given as the source filed them. Cut-off read from the data, not from the text of the source: active = GI50 up to about 1.1 µM and inactive = higher.

| compound | measured target | GI50 |
| --- | --- | --- |
| O=C(/C=C/c1ccc(O)c(O)c1)OC1C[C@@](O)(C(=O)O)C[C@@H](O)[C@H]1OC(=O)/C=C/c1ccc(O)c(O)c1 (stereo partly drawn) | LOX IMVI | > 100 µM (inactive) |
| CCOC(=O)c1cc2c([nH]1)c(O)cc1c2ccn1Cc1ccccc1 | LOX IMVI | 14.4 µM (inactive) |
| Cc1ccc(S(=O)(=O)NCC2CCCCC2=O)cc1 (stereo not drawn) | LOX IMVI | > 100 µM (inactive) |

* * *

Test system: OVCAR-8
Assay: NCI tumour cell line growth inhibition, 48 h
Active and inactive are the calls of the source. Cut-off read from the data, not from the text of the source: active = GI50 up to about 1.1 µM and inactive = higher.

| molecule | GI50 |
| --- | --- |
| CN(C)c1cccc2c1C(=O)C=CC21c2ccc(N(C)C)c3c(N(C)C)ccc(c23)C(c2ccccc2)C1c1ccccc1 (stereo not drawn) | 13.5 µM (inactive) |
| O=C1CCC(=O)C12CCc1ccccc12 | > 100 µM (inactive) |
| N=C(N)NS(=O)(=O)c1ccc(NC(=O)c2cccc3c(O)c4ccccc4nc23)cc1 | 71.1 µM (inactive) |

* * *

Test system: TK-10
Assay: NCI tumour cell line growth inhibition, 48 h
Activity calls are given as the source filed them. Cut-off read from the data, not from the text of the source: active = GI50 up to about 1.1 µM and inactive = higher.
readout label: GI50

| structure notation | result |
| --- | --- |
| CC(=O)N/C=C/c1cc(O)ccc1O | 39.2 µM (inactive) |
| O=C(CSc1nc2ccc(I)cc2c(=O)n1Cc1ccccc1)NNC(=S)Nc1ccccc1 | 61.8 µM (inactive) |
| COC(=O)Cc1nc2ccccc2o1 | 46.2 µM (inactive) |
| Cc1ccc(Nc2cccc3c2C(=O)c2cccc(Nc4ccc(C)cc4S(=O)(=O)O)c2C3=O)c(S(=O)(=O)O)c1 | > 100 µM (inactive) |

* * *

The compounds listed here are annotated with their GI50.
Tested on: U-251
Experiment: NCI tumour cell line growth inhibition, 48 h
Calls of active or inactive are those of the source. No stated cut-off is given here; in the data, active = GI50 up to about 1.1 µM and inactive = higher.
readout label: GI50

| compound | measured target | readout label | result |
| --- | --- | --- | --- |
| CCOC(=O)/C=C(/C(=O)OCC)n1cc(C)c(=O)n(Cc2cn(COCCOC(C)=O)nn2)c1=O | U-251 | GI50 | 26.3 µM (inactive) |
| CCN(CC)CCC(=O)c1ccc(Oc2ccc(Cl)cc2)cc1 | U-251 | GI50 | 16.9 µM (inactive) |
| COC(=O)CC1CN(C(=O)OCc2ccccc2)C(C)(C)O1 (configuration not stated) | U-251 | GI50 | > 100 µM (inactive) |
| COC(=O)C1=Cc2cc3c(cc2[C@H](c2ccc4c(c2)OCO4)C1C(=O)OC)OCO3 (some centres not stated) | U-251 | GI50 | 61.4 µM (inactive) |
| CC(C)C[P+](c1ccccc1)(c1ccccc1)c1ccccc1 | U-251 | GI50 | 3.12 µM (inactive) |
| O=C(Nc1ccc(S(=O)(=O)/N=c2\ncccn2C(=O)C(C(F)(F)F)C(F)(F)F)cc1)C(C(F)(F)F)C(F)(F)F | U-251 | GI50 | > 100 µM (inactive) |
| CCOC(=O)c1c(N)n(-c2ccccc2)c(=S)n(-c2ccccc2)c1=O | U-251 | GI50 | > 100 µM (inactive) |
| CC(=O)N[C@@H](Cc1ccc(O)cn1)C(=O)NC1CCCCC1 | U-251 | GI50 | > 100 µM (inactive) |
| N=C(N)NS(=O)(=O)c1ccc(NC(=O)c2cccc3c(Nc4ccc(S(N)(=O)=O)cc4)c4ccccc4nc23)cc1 | U-251 | GI50 | > 100 µM (inactive) |
| Cc1cc2c(cc1C)[n+]([O-])c(C(=O)C/C(=N/NC(=O)c1ccccc1O)C(=O)Nc1ccccc1C(C)C)c(C)[n+]2[O-] | U-251 | GI50 | > 100 µM (inactive) |
| CCOC(=O)N1C2C=C(C)C(C3C(C)C(=O)N31)N(C(=O)c1ccccc1)O2 (configuration not stated) | U-251 | GI50 | > 100 µM (inactive) |
| c1csc(C(NC2=NCCO2)C2CC2)c1 (configuration not stated) | U-251 | GI50 | > 100 µM (inactive) |
